# MEASUREMENT_TARGET: PEG-3 (UniProt Q6IN02)
# PROTOCOL_DETAILS: GAPDH versus PEG-3 reporter suppression – cell-based, luminescence, counter-screen for PEG-3 promoter inhibitor project, SAR follow-up (AID 651551)
# CONDITIONS_USED: HeLa PEG-Prom / GAPDH luciferase reporter, 6 or 24 h, mean of runs, 24 h
Active and inactive are the calls of the source.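 Rule for the calls: active = compounds blocking the Peg3 reporter with IC50 up to 10 µM at 6 or 24 hours, yet inert on a control reporter; inactive = the rest.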
ENDPOINT_NAME: IC50

SMILES_DATA | IC50
CCCn1nc(C(=O)Nc2nc3ccccc3s2)c2ccccc2c1=O | > 99 µM (inactive)
CCn1nc(C(=O)Nc2nc(-c3ccccn3)cs2)c2ccccc2c1=O | 6.13 µM
COc1ccc(-n2nc(C(=O)NCC(=O)Nc3ccc(OC)c(OC)c3)c3ccccc3c2=O)cc1 | > 99 µM (inactive)
CCn1cc(C(=O)NCc2ccco2)c(=O)c2cc(S(=O)(=O)N3CCCC3)ccc21 | > 99 µM (inactive)
O=C(Nc1nc(-c2ccccc2)cs1)c1nn(-c2ccccc2)c(=O)c2ccccc12 | > 99 µM (inactive)

Query: IC50; subject: CCCn1nc(C(=O)Nc2nc(-c3ccccn3)cs2)c2ccccc2c1=O inactive

Query: IC50; subject: Cc1nc(NC(=O)c2ccccc2)sc1-c1csc(Nc2ccccc2)n1 inactive

The reported measurements were obtained from PubChem BioAssay AID651551.
